System: HEK-Blue™ hTLR cells
Test: cytotoxicity, cell viability by CellTiter-Glo
Format: cell-based, human
Conditions: cultured 1 day
METRIC: CC50

Problem: Fill in the recorded CC50 for this molecule, with HEK-Blue™ hTLR cells as test system: CCOCc1nc2c(N)nc3ccccc3c2n1C[C@@H](C)OP(=O)(N[C@@H](C)C(=O)OC(C)C)Oc1cccc2ccccc12 (single isomer, unassigned)
Solution: > 30 µM

====

Target: hTLR7 (Homo sapiens, UniProt Q9NYK1)
Construct: expressed in transfected cells; host or cells: HEK-Blue hTLR cells
Sequence (Q9NYK1 27-1049): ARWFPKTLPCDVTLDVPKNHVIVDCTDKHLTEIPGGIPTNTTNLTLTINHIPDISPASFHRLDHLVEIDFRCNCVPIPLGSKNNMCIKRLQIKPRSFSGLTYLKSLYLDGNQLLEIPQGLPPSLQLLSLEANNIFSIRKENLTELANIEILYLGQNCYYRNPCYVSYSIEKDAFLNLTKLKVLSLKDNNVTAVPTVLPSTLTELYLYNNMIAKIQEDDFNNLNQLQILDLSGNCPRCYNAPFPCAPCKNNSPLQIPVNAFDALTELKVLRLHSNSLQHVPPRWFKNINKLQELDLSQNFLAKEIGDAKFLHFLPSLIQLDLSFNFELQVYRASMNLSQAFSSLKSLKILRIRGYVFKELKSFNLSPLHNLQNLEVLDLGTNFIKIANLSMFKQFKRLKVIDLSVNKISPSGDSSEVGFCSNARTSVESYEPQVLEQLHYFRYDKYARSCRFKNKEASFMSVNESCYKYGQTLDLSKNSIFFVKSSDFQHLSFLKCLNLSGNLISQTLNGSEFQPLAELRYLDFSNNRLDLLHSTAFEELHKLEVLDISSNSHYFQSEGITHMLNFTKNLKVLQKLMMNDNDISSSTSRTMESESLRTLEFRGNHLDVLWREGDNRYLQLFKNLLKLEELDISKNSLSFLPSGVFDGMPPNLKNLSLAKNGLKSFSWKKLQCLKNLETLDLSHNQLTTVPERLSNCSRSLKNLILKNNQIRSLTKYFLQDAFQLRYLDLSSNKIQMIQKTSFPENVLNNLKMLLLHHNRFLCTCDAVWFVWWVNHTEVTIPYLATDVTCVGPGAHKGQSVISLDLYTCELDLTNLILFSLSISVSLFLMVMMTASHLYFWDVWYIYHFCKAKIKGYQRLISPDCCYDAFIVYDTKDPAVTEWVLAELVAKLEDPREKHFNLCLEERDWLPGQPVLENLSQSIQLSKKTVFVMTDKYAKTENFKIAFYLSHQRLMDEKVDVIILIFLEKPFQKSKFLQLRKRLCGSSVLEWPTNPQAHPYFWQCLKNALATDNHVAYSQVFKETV
Experiment: agonistic activity on hTLR7, HEK-Blue hTLR cells, SEAP reporter (QUANTI-Blue)
Assay type: cell-based
Details: HEK-Blue hTLR cells, SEAP reporter, OD650, cultured 1 day; read-out: TLR 7 EC50
METRIC: pEC50
pEC50 (log units): -log10 of the concentration in mol/L.

// worked examples, pEC50 included
{"COMPOUND": "CCOCc1nc2c(N)nc3ccccc3c2n1C[C@@H](C)O[P@@](=O)(N[C@@H](C)C(=O)OC(C)C)Oc1ccc(C)cc1 (single isomer, unassigned)", "pEC50": 5.02}
{"COMPOUND": "CCOCc1nc2c(N)nc3ccccc3c2n1C[C@H](C)O", "pEC50": 6.36}
{"COMPOUND": "CCOCc1nc2c(N)nc3ccccc3c2n1C[C@@H](C)O[P@@](=O)(N[C@@H](C)C(=O)OC(C)(C)C)Oc1ccccc1 (single isomer, unassigned) [Example 14A]", "pEC50": 4.80}
{"COMPOUND": "CCOCc1nc2c(N)nc3ccccc3c2n1C[C@@H](C)O[P@@](=O)(N[C@@H](C)C(=O)OC(C)C)Oc1ccc(Cl)cc1 (single isomer, unassigned) [Example 12A]", "pEC50": 5.22}
{"COMPOUND": "CCOCc1nc2c(N)nc3ccccc3c2n1C[C@@H](C)O[P@@](=O)(N[C@@H](C)C(=O)OC(C)C)Oc1ccc2ccccc2c1 (single isomer, unassigned)", "pEC50": 5.14}

Problem: Fill in the recorded pEC50 for this compound, with hTLR7 (Homo sapiens, UniProt Q9NYK1) as test system: CCOCc1nc2c(N)nc3ccccc3c2n1C[C@H](C)O[P@](=O)(N[C@@H](C)C(=O)OC(C)C)Oc1ccccc1 (single isomer, unassigned)
Solution: 5.44

Problem: Fill in the recorded pEC50 for this compound, with hTLR7 (Homo sapiens, UniProt Q9NYK1) as test system: CCOCc1nc2c(N)nc3ccccc3c2n1C[C@@H](C)O[P@@](=O)(N[C@@H](C)C(=O)OC(C)C)Oc1cccc(Cl)c1 (single isomer, unassigned) [Example 11A]
Solution: 5.23

Problem: Fill in the recorded pEC50 for this compound, with hTLR7 (Homo sapiens, UniProt Q9NYK1) as test system: CCOCc1nc2c(N)nc3ccccc3c2n1CC(C)O (stereo not drawn)
Solution: 6.18
